System: Enterococcus faecium (VRE) MB 305
Assay: MIC agar dilution, VRE strain 25
Format: cell-based
Conditions: 22 hrs
Description: Molar equivalent concentrations were used to allow comparison between compounds of differing molecular mass. Due to weighing difficulties, any compound in solid form was melted in a water bath prior to dilution. […] Each plate was examined for bacterial growth after 22 and 48 hours, with each being incubated in between examinations. A positive result was recorded as growth of ≧10 colonies. […] The lowest concentration of chemical that inhibited growth was recorded as the MIC. […]
MIC values by entry
Report only the number, with the unit µM understood.

Recorded MIC, per entry:
molecule | measurement-units | observed-value
CCCCCCCCCCCCOCCOCCOCCO | µM | 440
CCCCCCCCCCCCOCCOCCOCCOCCOCCOCCO | µM | 220

Continue with the molecule presented below.
Ask: Please look up its MIC: CCCCCCCCCCCCOCCOCCO
Result: 880

----------
test system: Enterococcus faecium (VRE) NCTC 12952; test: MIC agar dilution, VRE strain 30; type: cell-based; settings: 48 hrs
MIC values by entry
Report only the number, with the unit µM understood.

Recorded MIC, per entry:
molecule | measurement-units | MIC
CCCCCCCCCCCCOCCOCCOCCO | µM | 220
CCCCCCCCCCCCOCCOCCOCCOCCOCCO | µM | 220
CCCCCCCCCCCCOCCOCCO | µM | 440
CCCCCCCCCCCCOCCOCCOCCOCCO | µM | 440

Ask: Return MIC measured with Enterococcus faecium (VRE) NCTC 12952 given this compound: CCCCCCCCCCCCOCCO
Result: 220

----------
tested on: MRSA EMRSA 15 1729/98; assay: MIC agar dilution, MRSA strain 42; type: cell-based; settings: Staphylococcus aureus, 22 hrs
MIC values by entry
Report only the number, with the unit µM understood.

Recorded MIC, per entry:
molecule | measurement-units | observed-value
CCCCCCCCCCCCOCCOCCOCCOCCOCCOCCO | µM | 110
CCCCCCCCCCCCOCCOCCOCCO | µM | 110
CCCCCCCCCCCCOCCOCCOCCOCCO | µM | 55

Continue with the compound presented below.
Ask: Please look up its MIC: CCCCCCCCCCCCOCCOCCOCCOCCOCCOCCOCCO
Result: 440

----------
test system: Enterococcus faecalis; experiment: MIC agar dilution, micro-organism 17 (775); type: cell-based; details: Enterococcus faecalis 775; 48 hrs; read-out: MIC
value-type: MIC (µM)
Report only the number, with the unit µM understood.

Recorded MIC, per entry:
compound | MIC [µM]
CCCCCCCCCCCCOCCOCCOCCOCCOCCOCCOCCO [L7, Heptaethylene Glycol Monododecyl Ether] | 110
CCCCCCCCCCCCOCCOCCOCCOCCO [L4, Tetraethylene Glycol Monododecyl Ether] | 110
CCCCCCCCCCCCOCCOCCOCCOCCOCCO [L5, Pentaethylene Glycol Monododecyl Ether] | 110
CCCCCCCCCCCCCCOCCOCCOCCOCCO [M4] | 220
CCCCCCCCCCCCOCCO [L1, Ethylene Glycol Monododecyl Ether] | 440
CCCCCCCCCCCCOCCOCCOCCO [L3, Triethylene Glycol Monododecyl Ether] | 110
CCCCCCCCCCCCOCCOCCOCCOCCOCCOCCO [L6, Hexaethylene Glycol Monododecyl Ether] | 110
CCCCCCCCCCCCCCO [M0, 1-Tetradecanol, reference compound] | 110

Ask: Please look up its MIC: CCCCCCCCCCCCCCOCCOCCOCCOCCOCCOCCOCCOCCO [M8, Octaethylene Glycol Monotetradecyl Ether]
Result: 55

Ask: Please look up its MIC: CCCCCCCCCCCCOCCOCCO [L2, Diethylene Glycol Monododecyl Ether]
Result: 220

Ask: Please look up its MIC: CCCCCCCCCCCCOCCOCCOCCOCCOCCOCCOCCOCCO [L8, Octaethylene Glycol Monododecyl Ether]
Result: 110

----------
test system: MRSA NCTC 11939; experiment: Synergy testing: disc susceptibility, zone of inhibition on agar containing Laureth derivative; type: cell-based, Staphylococcus aureus; settings: antibiotic disc in the presence of L5 [C12E5] 0.0275 mmol/L
value-type: Zone of Inhibition (mm)
Report only the number, with the unit mm understood.

Recorded Zone of Inhibition, per entry:
molecule | value-type | observed-value
CN(C)[C@@H]1C(O)=C(C(N)=O)C(=O)[C@@]2(O)C(O)=C3C(=O)c4c(O)cccc4[C@@](C)(O)[C@H]3C[C@@H]12 | Zone of Inhibition | 32
O=C(N[C@H](CO)[C@H](O)c1ccc([N+](=O)[O-])cc1)C(Cl)Cl | Zone of Inhibition | 25

Ask: Please look up its Zone of Inhibition: C/C(=C\C(=O)OCCCCCCCCC(=O)O)C[C@@H]1OC[C@H](C[C@@H]2O[C@H]2[C@@H](C)[C@H](C)O)[C@@H](O)[C@H]1O
Result: 32

----------
Test system: Enterococcus faecium (VRE) MB310
Test: MIC agar dilution, VRE strain 29
Assay type: cell-based
Conditions: 48 hrs
Procedure: Molar equivalent concentrations were used to allow comparison between compounds of differing molecular mass. Due to weighing difficulties, any compound in solid form was melted in a water bath prior to dilution. […] Each plate was examined for bacterial growth after 22 and 48 hours, with each being incubated in between examinations. A positive result was recorded as growth of ≧10 colonies. […] The lowest concentration of chemical that inhibited growth was recorded as the MIC. […]
MIC values by entry
Report only the number, with the unit µM understood.

compound | subject-of-test | observed-value
CCCCCCCCCCCCOCCOCCOCCOCCO [L4, Tetraethylene Glycol Monododecyl Ether] | Enterococcus faecium (VRE) MB310 | 110

Ask: Please look up its MIC: CCCCCCCCCCCCOCCOCCOCCO [L3, Triethylene Glycol Monododecyl Ether]
Result: 440

Ask: Please look up its MIC: CCCCCCCCCCCCOCCOCCOCCOCCOCCOCCOCCO [L7, Heptaethylene Glycol Monododecyl Ether]
Result: 110

Ask: Please look up its MIC: CCCCCCCCCCCCOCCO [L1, Ethylene Glycol Monododecyl Ether]
Result: 440

Ask: Please look up its MIC: CCCCCCCCCCCCOCCOCCOCCOCCOCCOCCO [L6, Hexaethylene Glycol Monododecyl Ether]
Result: 220

Ask: Please look up its MIC: CCCCCCCCCCCCOCCOCCO [L2, Diethylene Glycol Monododecyl Ether]
Result: 880

Ask: Please look up its MIC: CCCCCCCCCCCCOCCOCCOCCOCCOCCO [L5, Pentaethylene Glycol Monododecyl Ether]
Result: 110

----------
system: Escherichia coli; experiment: MIC agar dilution, micro-organism 1 (10418); type: cell-based; settings: Escherichia coli 10418; 48 hrs; read-out: MIC
value-type: MIC

Recorded MIC, per entry:
molecule | value-type | observed-value
CCCCCCCCCCO [D0, 1-Decanol, reference compound] | MIC | > 880 µM
CCCCCCCCCCCCOCCOCCOCCOCCOCCOCCO | MIC | > 880 µM
CCCCCCCCCCCCCCOCCOCCOCCOCCO | MIC | > 880 µM
CCCCCCCCCCCCOCCOCCOCCOCCO | MIC | > 880 µM

Continue with the molecule presented below.
Ask: Please look up its MIC: CCCCCCCCCCCCOCC(C)O (racemic)
Result: > 880 µM

----------
tested on: Enterococcus faecalis (VRE) MB 726; assay: MIC agar dilution, VRE strain 28; assay type: cell-based; conditions: 48 hrs
MIC values by entry

Recorded MIC, per entry:
molecule | observed-value
CCCCCCCCCCCCOCCOCCOCCOCCOCCOCCOCCOCCO | > 880 µM
CCCCCCCCCCCCOCCOCCOCCOCCOCCOCCOCCO | > 880 µM

Continue with the compound presented below.
Ask: Please look up its MIC: CCCCCCCCCCCCOCCOCCOCCOCCOCCOCCO
Result: > 880 µM

----------
System: Staphylococcus aureus
Assay: MIC agar dilution, micro-organism 13 (6571)
Type: cell-based
Settings: Staphylococcus aureus, 22 h, Staphylococcus aureus 6571; 22 hrs; read-out: MIC
Protocol: Throughout the period of testing the microbial strains were subcultured and incubated for 18-20 hours at 37° C. on a weekly basis. Horse blood agar plates were used to sustain the micro-organisms both prior to and throughout testing. […] Each plate was examined for bacterial growth after 22 and 48 hours, with each being incubated in between examinations. A positive result was recorded as growth of ≧10 colonies. […] The lowest concentration of chemical that inhibited growth was recorded as the MIC. […]
value-type: MIC

compound | MIC
CCCCCCCCCCOCCO [D1, Ethylene Glycol Monodecyl Ether, reference compound] | > 880 µM
CCCCCCCCCCCCCCCCCCO [S0, 1-Octadecanol, reference compound] | > 880 µM

Continue with the compound presented below.
Ask: Please look up its MIC: CCCCCCCCCCO [D0, 1-Decanol, reference compound]
Result: > 880 µM

----------
System: Enterococcus faecium (VRE) NCTC 12952
Assay: MIC agar dilution, VRE strain 30
Type: cell-based
Details: 48 hrs
Protocol: Molar equivalent concentrations were used to allow comparison between compounds of differing molecular mass. Due to weighing difficulties, any compound in solid form was melted in a water bath prior to dilution. […] Each plate was examined for bacterial growth after 22 and 48 hours, with each being incubated in between examinations. A positive result was recorded as growth of ≧10 colonies. […] The lowest concentration of chemical that inhibited growth was recorded as the MIC. […]
MIC values by entry

molecule | subject-of-test | observed-value
CCCCCCCCCCCCOCCOCCOCCOCCOCCOCCO | Enterococcus faecium (VRE) NCTC 12952 | > 880 µM
CCCCCCCCCCCCOCCOCCOCCOCCOCCOCCOCCOCCO | Enterococcus faecium (VRE) NCTC 12952 | > 880 µM

Continue with the compound presented below.
Ask: Please look up its MIC: CCCCCCCCCCCCOCCOCCOCCOCCOCCOCCOCCO
Result: > 880 µM
